# EXPERIMENTAL TARGET: Protein deacetylase HDAC6 (Homo sapiens, UniProt Q9UBN7)
# Sequence (Q9UBN7 whole entry): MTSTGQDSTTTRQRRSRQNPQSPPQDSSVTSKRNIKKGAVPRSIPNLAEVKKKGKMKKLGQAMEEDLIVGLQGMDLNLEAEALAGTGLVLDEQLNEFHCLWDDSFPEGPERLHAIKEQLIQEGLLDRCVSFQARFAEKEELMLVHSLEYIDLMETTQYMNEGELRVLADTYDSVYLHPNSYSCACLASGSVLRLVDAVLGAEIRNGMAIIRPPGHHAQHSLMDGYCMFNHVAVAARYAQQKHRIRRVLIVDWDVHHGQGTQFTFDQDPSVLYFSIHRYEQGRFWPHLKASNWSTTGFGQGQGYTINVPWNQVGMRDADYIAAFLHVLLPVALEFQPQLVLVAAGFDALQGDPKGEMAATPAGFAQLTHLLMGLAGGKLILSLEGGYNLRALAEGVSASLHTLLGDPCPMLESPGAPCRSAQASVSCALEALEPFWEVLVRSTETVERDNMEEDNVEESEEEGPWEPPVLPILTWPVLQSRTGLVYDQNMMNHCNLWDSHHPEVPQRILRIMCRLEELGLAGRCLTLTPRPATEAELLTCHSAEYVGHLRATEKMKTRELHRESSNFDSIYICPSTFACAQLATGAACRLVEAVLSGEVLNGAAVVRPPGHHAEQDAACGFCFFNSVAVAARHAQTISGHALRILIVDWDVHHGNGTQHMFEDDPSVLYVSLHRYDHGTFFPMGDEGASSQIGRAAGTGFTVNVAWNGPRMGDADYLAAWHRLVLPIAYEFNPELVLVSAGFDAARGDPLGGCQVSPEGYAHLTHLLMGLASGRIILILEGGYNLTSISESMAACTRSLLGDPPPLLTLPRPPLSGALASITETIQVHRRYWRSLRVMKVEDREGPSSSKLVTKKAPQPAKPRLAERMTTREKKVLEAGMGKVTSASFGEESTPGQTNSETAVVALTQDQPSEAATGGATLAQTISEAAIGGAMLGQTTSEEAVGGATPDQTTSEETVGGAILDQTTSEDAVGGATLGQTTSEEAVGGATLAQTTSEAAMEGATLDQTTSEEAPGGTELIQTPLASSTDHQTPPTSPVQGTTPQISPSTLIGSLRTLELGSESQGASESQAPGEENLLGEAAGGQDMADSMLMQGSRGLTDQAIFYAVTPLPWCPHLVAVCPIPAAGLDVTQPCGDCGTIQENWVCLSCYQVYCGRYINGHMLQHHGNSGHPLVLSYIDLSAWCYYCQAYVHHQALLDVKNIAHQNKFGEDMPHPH
# EXPERIMENT NOTES: Inhibition of HDAC6 (unknown origin) by microtiter plate reader analysis
pIC50: −log10 of the molar value.

SUBSTANCE SMILES: CCN(CC)c1ccc(C(=O)NCCCCCCC(=O)NO)cc1
pIC50: 11.02

Data origin, for the record: ChEMBL document CHEMBL5150006
